System: SK-MEL-5 melanoma
Experiment: NCI tumour cell line growth inhibition, 48 h
quantity: GI50

>>> measurement("COc1ccc(-c2nnc(Nc3nc(O)c(C4=c5cc(Br)ccc5=NC4=O)s3)o2)cc1")
"18.3 µM"

The reported GI50 of the compound "CCCCNCCCCCNc1cc(OC)cc2cccnc12" was 12.6 µM

Value of measured GI50 for the entry "CCOC(=O)c1cc(C(=O)c2cc(OC)c(OC)c(OC)c2)n2ccc(-c3cc[n+](CC(=O)c4cc(OC)c(OC)c(OC)c4)cc3)cc12" : 1.81 µM

###

System: HCT-15 colon
Assay: NCI tumour cell line growth inhibition, 48 h
TGI reference

Worked examples, 2 compounds total:
>>> measurement("CC(=O)c1cccc(Nc2nc3ccccc3c3[nH]c4ccccc4c23)c1")
"> 100 µM"
>>> measurement("COc1cccc(-c2nn(-c3ccccc3)cc2-c2ccnc(NCCCNS(=O)(=O)c3ccc(C(F)(F)F)cc3)c2)c1")
"> 100 µM"

Sample "CCCCNCCCCCNc1cc(OC)cc2cccnc12" ; TGI observed: > 100 µM

Form field TGI, entry "CCOC(=O)c1nc2cc(F)cc(F)c2[nH]c1=O" : > 100 µM

# credit: PubChem BioAssay (NCI)
